- Test system: Hs-578T
- PROTOCOL_NOTES: NCI tumour cell line growth inhibition, 48 h
Active and inactive are the calls of the source. No stated cut-off is given here; in the data, active = GI50 up to about 1.1 µM and inactive = higher.
REPORTED_PROPERTY: GI50

INSERT INTO assay_data (smiles_representation, data_value) VALUES
  ('Cc1cc(C)c2c(-c3ccccc3)cc(=O)[nH]c2c1', '> 100 µM (inactive)'),
  ('CN(C)CCCSc1nc2ccccc2[nH]1', '> 100 µM (inactive)'),
  ('CC(=O)Nc1ccc2c(c1)/C(=C\c1ccc([N+](C)(C)C)cc1)c1ccccc1-2', '35.4 µM (inactive)');

====

- System: SK-OV-3
- PROTOCOL_NOTES: NCI tumour cell line growth inhibition, 48 h
Activity calls are given as the source filed them. No stated cut-off is given here; in the data, active = GI50 up to about 1.1 µM and inactive = higher.
Items are presented alongside their recorded GI50.
REPORTED_PROPERTY: GI50

INSERT INTO assay_data (compound, assay_target, data_value) VALUES
  ('O=c1[nH][nH]c(=O)n1Cc1ccccc1', 'SK-OV-3', '> 100 µM (inactive)'),
  ('CC(C)(C)C1=CC(=N/N=c2\scc(-c3ccccc3)n2-c2ccccc2)C=C(C(C)(C)C)C1=O', 'SK-OV-3', '> 100 µM (inactive)'),
  ('CC1OC(n2cc(Cl)c(=O)[nH]c2=O)C=C(OC(=O)c2ccccc2)C1=O (stereo unspecified)', 'SK-OV-3', '> 100 µM (inactive)'),
  ('CC1=C(C(=O)OC(C)C)C(c2ccccc2C(F)(F)F)C(C(=O)OC(CO[N+](=O)[O-])CO[N+](=O)[O-])=C(C)N1 (stereo unspecified)', 'SK-OV-3', '11.2 µM (inactive)'),
  ('Oc1ccc(NCc2cc(O)ccc2O)cc1', 'SK-OV-3', '17.8 µM (inactive)'),
  ('CC1(C)CC2CC(CC(C)(C)C2=O)C1=O', 'SK-OV-3', '> 100 µM (inactive)'),
  ('CCc1nc2ccc(C(F)(F)F)cc2[nH]c1=O', 'SK-OV-3', '> 100 µM (inactive)'),
  ('CN(NC(=O)CCCl)C1=NCCCCN1', 'SK-OV-3', '> 100 µM (inactive)'),
  ('CC(=O)CC1CCC(=O)/C=C/C(=O)OC(CC(C)=O)CCC(=O)/C=C/C(=O)O1 (stereo unspecified)', 'SK-OV-3', '20.7 µM (inactive)'),
  ('COc1ccc2c3c1C(=O)CCC3CO2 (stereo unspecified)', 'SK-OV-3', '> 100 µM (inactive)'),
  ('COC(=O)c1c(C)cccc1C1CN=NC12Cc1ccccc1C2=O (stereo unspecified)', 'SK-OV-3', '> 100 µM (inactive)'),
  ('Clc1nc(Nc2nc3ccccc3[nH]2)nc(Cl)c1Cc1ccccc1', 'SK-OV-3', '> 100 µM (inactive)'),
  ('CCOP(=O)(OCC)OC1CC(n2cnc3c(N(CC)CC)ncnc32)OC1CO[Si](C)(C)C(C)(C)C (stereo unspecified)', 'SK-OV-3', '17.5 µM (inactive)'),
  ('Nc1ccc(C(=O)N/C(=C\c2cccc([N+](=O)[O-])c2)c2nc3c4c(ccc3[nH]2)C(=O)c2ccccc2C4=O)cc1', 'SK-OV-3', '19.3 µM (inactive)'),
  ('CC12OOC(c3ccccc31)c1c2ccc2ccccc12 (stereo unspecified)', 'SK-OV-3', '20 µM (inactive)'),
  ('COc1cc(/C=C2\NC(=O)C(Cc3cc(OC)c(OC)c(C)c3OC)N(C(C)=O)C2=O)c(OC)c(C)c1OC (stereo unspecified)', 'SK-OV-3', '> 100 µM (inactive)'),
  ('O=C(O)c1ccc(-c2nc3cc(Cl)ccc3[nH]2)cc1', 'SK-OV-3', '> 100 µM (inactive)'),
  ('Cc1ccc(SC2C(=O)C3CC(OCc4ccccc4)C2(C)C3(C)C)cc1 (stereo unspecified)', 'SK-OV-3', '> 100 µM (inactive)'),
  ('CN(C)CCNC(=O)c1ccc2nc3c(nc2c1)C(=O)c1ccccc1-3', 'SK-OV-3', '> 100 µM (inactive)'),
  ('CCN(CC)CCC(=O)c1ccc(Sc2ccc(F)cc2)cc1', 'SK-OV-3', '23.3 µM (inactive)'),
  ('COC(=O)C1(c2ccc(N(C)C)cc2OC)CCCN(C(=O)Oc2ccccc2[N+](=O)[O-])CCc2c1[nH]c1ccccc21 (stereo unspecified)', 'SK-OV-3', '> 100 µM (inactive)');
